# measured-target: Cannabinoid receptor 1 (Homo sapiens)
# Sequence (P21554 whole entry): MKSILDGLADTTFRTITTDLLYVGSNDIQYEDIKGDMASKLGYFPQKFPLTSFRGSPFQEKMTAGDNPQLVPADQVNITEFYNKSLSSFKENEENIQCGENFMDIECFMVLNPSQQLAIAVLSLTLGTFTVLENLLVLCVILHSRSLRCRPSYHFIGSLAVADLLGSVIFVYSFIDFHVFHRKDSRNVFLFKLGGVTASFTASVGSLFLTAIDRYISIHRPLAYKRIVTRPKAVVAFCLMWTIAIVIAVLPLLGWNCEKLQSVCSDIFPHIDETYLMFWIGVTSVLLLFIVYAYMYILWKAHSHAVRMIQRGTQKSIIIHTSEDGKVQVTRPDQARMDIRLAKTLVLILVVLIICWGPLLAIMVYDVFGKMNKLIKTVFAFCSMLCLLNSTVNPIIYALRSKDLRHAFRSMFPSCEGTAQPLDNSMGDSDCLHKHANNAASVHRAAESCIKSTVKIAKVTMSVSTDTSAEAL
# protocol-description: Inverse agonist activity at human CB1 receptor expressed in CHO cells assessed as forskolin-stimulated intracellular cAMP accumulation measured after 30 mins by Glosensor assay
# Assay type: cell-based
measurement-name: EC50

Find EC50 for O=C1CC(c2nc(-c3ccc(F)c4cn[nH]c34)no2)CCCN1c1cc(F)c(F)c(F)c1 (stereo unspecified) on Cannabinoid receptor 1 (Homo sapiens) and write it down. > 10 µM

====

# measured-target: Cannabinoid receptor 2 (Homo sapiens, UniProt P34972)
# Sequence (P34972 whole entry): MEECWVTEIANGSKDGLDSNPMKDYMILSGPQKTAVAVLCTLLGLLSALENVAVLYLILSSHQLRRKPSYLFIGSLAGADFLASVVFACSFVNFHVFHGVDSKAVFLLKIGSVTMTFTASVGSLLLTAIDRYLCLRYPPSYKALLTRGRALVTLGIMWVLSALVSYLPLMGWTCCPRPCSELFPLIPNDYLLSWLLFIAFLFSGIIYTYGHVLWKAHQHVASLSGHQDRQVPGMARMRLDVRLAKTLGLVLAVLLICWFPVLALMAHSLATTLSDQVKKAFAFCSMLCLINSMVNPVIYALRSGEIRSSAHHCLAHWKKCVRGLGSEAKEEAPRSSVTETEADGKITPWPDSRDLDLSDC
# protocol-description: Agonist activity at human CB2 receptor expressed in CHO cells assessed as inhibition of forskolin-stimulated intracellular cAMP accumulation measured after 30 mins by Glosensor assay
# Assay type: functional, cell-based
measurement-name: EC50

# compound, recorded-result
records = [
    ("Fc1ccc(Nc2cccc(-c3nc(-c4ccccc4)no3)c2)cc1", "> 10 µM"),
    ("O=C(c1ccc(F)cc1)N1CC(c2nc(-c3ccccc3)no2)C1", "> 10 µM"),
    ("CC(=O)c1ccc(N2CCCC(c3nc(-c4ccc(F)c5cn[nH]c45)no3)CC2=O)cc1 (stereo unspecified)", "> 10 µM"),
    ("Cc1ccc(N2CCCC(c3nc(-c4ccc(F)c5cn[nH]c45)no3)CC2=O)cc1 (stereo unspecified)", "1.35 µM"),
    ("O=C(c1ccc(F)cc1)N1CCC(c2nc(-c3ccccc3)no2)CC1", "> 10 µM"),
    ("CN1CCCC(c2nc(-c3ccc(F)c4cn[nH]c34)no2)CC1=O (stereo unspecified)", "> 10 µM"),
]

The following compounds each have a reported value; give each one's EC50.
1. O=C(c1ccc(F)cc1)N1CC2(CC(c3nc(-c4ccccc4)no3)C2)C1
2. O=C1CC(c2nc(-c3ccc(F)c4cn[nH]c34)no2)CCCN1c1ccc(C(F)(F)F)cc1 (stereo unspecified)
3. O=C1CC(c2nc(-c3ccc(F)c4cn[nH]c34)no2)CCCN1c1cc(F)c(F)c(F)c1 (stereo unspecified)
4. O=C1CC(c2nc(-c3ccc(F)cc3F)no2)CCCN1c1ccc(F)cc1 (stereo unspecified)

1. > 10 µM
2. > 10 µM
3. 0.338 µM
4. > 10 µM

Report EC50 for `O=C1C[C@@H](c2nc(-c3ccc(F)c4cn[nH]c34)no2)CCCN1c1ccc(F)cc1` 0.0587 µM

====

# protocol-description: MRT(0 to t) in BALB/c mouse at 5 mg/kg, ip
# Assay type: ADME, organism-based
# condition-context: in vivo
measurement-name: MRT last

Look up MRT last of O=C1CC(c2nc(-c3ccc(F)c4cn[nH]c34)no2)CCCN1c1ccc(F)cc1 (stereo unspecified) and report it. 1.71 h

====

# protocol-description: Clearance in BALB/c mouse at 5 mg/kg, ip
# Type: ADME, organism-based
# condition-context: in vivo
measurement-name: CL/F (mL/min/kg)
Give bare numbers, in mL/min/kg.

Indicate its recorded CL/F; the molecule in question is O=C1CC(c2nc(-c3ccc(F)c4cn[nH]c34)no2)CCCN1c1ccc(F)cc1 (stereo unspecified) 45.8

====

# protocol-description: Tmax in BALB/c mouse at 1 mg/kg, iv
# Format: ADME, organism-based
# condition-context: in vivo
measurement-name: Tmax (min)
Answers are plain numbers, in min.

Output measured Tmax for this item: O=C1CC(c2nc(-c3ccc(F)c4cn[nH]c34)no2)CCCN1c1ccc(F)cc1 (stereo unspecified) 4.8
